biological target: T1, RAS G12V mutant (KRAS G12V) peptide on HLA-DPB1*03:01 (human); assay: activation reporter or marker
T1 peptide: TEYKLVVVGAVGV

binder: B13.14.1 TCR mutant α32Y-S (TCR, V domains shown) Valpha: AQSVAQPEDQVNVAEGNPLTVKCTYSVSGNPSLFWYVQYPNRGLQFLLKYITGDNLVKGSYGFEAEFNKSQTSFHLKKPSALVSDSALYFCAVRDGRGGGNKLTFGTGTQLKVEL Vbeta: DGGITQSPKYLFRKEGQNVTLSCEQNLNHDAMYWYRQDPGQGLRLIYYSQIVNDFQKGDIAEGYSVSREKKESFPLTVTSAQKNPTAFYLCASSPGQRDNSPLHFGNGTRLTVT
binding result: no recognition
--
binder: B13.14.1 TCR mutant β96G-F (TCR, V domains shown) Valpha: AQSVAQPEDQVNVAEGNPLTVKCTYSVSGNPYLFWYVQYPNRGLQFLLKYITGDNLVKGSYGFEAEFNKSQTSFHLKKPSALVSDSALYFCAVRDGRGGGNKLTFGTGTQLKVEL Vbeta: DGGITQSPKYLFRKEGQNVTLSCEQNLNHDAMYWYRQDPGQGLRLIYYSQIVNDFQKGDIAEGYSVSREKKESFPLTVTSAQKNPTAFYLCASSPFQRDNSPLHFGNGTRLTVT
binding result: no recognition
--
binder: B13.14.1 TCR mutant α32Y-H (TCR, V domains shown) Valpha: AQSVAQPEDQVNVAEGNPLTVKCTYSVSGNPHLFWYVQYPNRGLQFLLKYITGDNLVKGSYGFEAEFNKSQTSFHLKKPSALVSDSALYFCAVRDGRGGGNKLTFGTGTQLKVEL Vbeta: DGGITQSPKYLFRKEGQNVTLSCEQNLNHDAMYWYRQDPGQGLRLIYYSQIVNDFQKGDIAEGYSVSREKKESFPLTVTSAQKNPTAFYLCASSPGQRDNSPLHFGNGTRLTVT
binding result: no recognition
